# tested-target: Pancreatic triacylglycerol lipase (Homo sapiens) (UniProt P16233)
# Sequence (P16233 whole entry): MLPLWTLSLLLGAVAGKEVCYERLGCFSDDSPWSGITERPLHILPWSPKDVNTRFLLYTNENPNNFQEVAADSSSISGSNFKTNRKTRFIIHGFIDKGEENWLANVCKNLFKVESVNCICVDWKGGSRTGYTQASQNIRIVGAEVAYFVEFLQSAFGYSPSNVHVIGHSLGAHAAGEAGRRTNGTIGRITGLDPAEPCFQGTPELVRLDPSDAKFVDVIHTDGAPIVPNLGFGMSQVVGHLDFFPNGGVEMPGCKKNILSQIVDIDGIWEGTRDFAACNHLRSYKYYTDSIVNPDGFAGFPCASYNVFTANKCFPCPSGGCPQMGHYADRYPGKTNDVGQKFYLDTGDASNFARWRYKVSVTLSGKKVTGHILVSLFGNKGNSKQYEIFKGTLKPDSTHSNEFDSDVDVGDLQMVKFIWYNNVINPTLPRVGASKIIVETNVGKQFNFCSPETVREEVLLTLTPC
# experiment-notes: Inhibition of pancreatic lipase assessed as effect on oleic acid release from triolein at 1 mg/mL relative to control
Activity calls are given as the source filed them. The calls are words filed in the database; no cut-off is given here.
observed-property: Activity

[[record]]
smiles_string = "C[C@@H]1O[C@@H](O[C@H]2[C@H](O[C@H]3CC[C@]4(C)[C@H]5CC=C6[C@@H]7CC(C)(C)CC[C@]7(C(=O)O[C@@H]7O[C@H](CO[C@@H]8O[C@H](CO)[C@@H](O)[C@H](O)[C@H]8O)[C@@H](O)[C@H](O)[C@H]7O)CC[C@@]6(C)[C@]5(C)CC[C@H]4C3(C)C)OC[C@@H](O)[C@@H]2O)[C@H](O)[C@H](O[C@@H]2OC[C@@H](O)[C@H](O)[C@H]2O)[C@H]1O"
value = "Active"

[[record]]
smiles_string = "C[C@@H]1O[C@@H](O[C@H]2[C@H](O[C@H]3CC[C@]4(C)[C@H]5CC=C6[C@H]7[C@](C(=O)O[C@@H]8O[C@H](CO[C@@H]9O[C@H](CO)[C@@H](O)[C@H](O)[C@H]9O)[C@@H](O)[C@H](O)[C@H]8O)(CC[C@@H](C)[C@@]7(C)O)CC[C@@]6(C)[C@]5(C)CC[C@H]4C3(C)C)OC[C@H](O)[C@@H]2O)[C@H](O)[C@H](O[C@@H]2O[C@H](CO)[C@@H](O)[C@H](O)[C@H]2O)[C@H]1O"
value = "Active"

[[record]]
smiles_string = "C[C@@H]1O[C@@H](O[C@H]2[C@H](O[C@H]3CC[C@]4(C)[C@H]5CC=C6[C@@H]7CC(C)(C)CC[C@]7(C(=O)O[C@@H]7O[C@H](CO[C@@H]8O[C@H](CO)[C@@H](O)[C@H](O)[C@H]8O)[C@@H](O)[C@H](O)[C@H]7O)CC[C@@]6(C)[C@]5(C)CC[C@H]4C3(C)C)OC[C@@H](O)[C@@H]2O)[C@H](O)[C@H](O[C@@H]2O[C@H](CO)[C@@H](O[C@@H]3O[C@H](CO)[C@@H](O)[C@H](O)[C@H]3O)[C@H](O)[C@H]2O)[C@H]1O"
value = "Active"

